Each recorded value in this set is attributed to patent US20110294663A1.

The entries below come with measured Damage to crop plants (%) corn (GA-tolerant) (≦15-20% acceptable) values attached.
System: corn (GA-tolerant)
Test: Greenhouse trial: crop plant compatibility
Assay type: in vivo
Details: in vivo
Enter your answer as a number in %; do not include the unit.

Solved entries:
CC(C)N(C(=O)COc1nnc(C(F)(F)F)s1)c1ccc(F)cc1 ... 0
CS(=O)(=O)c1cc(C(F)(F)F)ccc1C(=O)c1cnoc1C1CC1 ... 15
COC(=O)c1nc(-c2ccc(Cl)c(OC)c2F)cc(N)c1Cl ... 0

Shifting focus to the compound that follows.
State its Damage to crop plants (%) corn (GA-tolerant) (≦15-20% acceptable): CCOCN(C(=O)CCl)c1c(C)cccc1CC 0
